Tested on: PA-1
Assay: Primary qHTS to identify gynecologic anti-cancer compounds using libraries of approved drugs and bioactive compounds (AID 1345084); also: nearly all actives have a fitted effect of over 55% in size
Details: Gynecologic cancer cell panel viability, ATPlite luminescence, 48 h; series mostly up to 57.5 µM
Text: National Center for Advancing Translational Sciences [NCATS] Assay Overview: Chemotherapeutic drug responses vary from cancer to cancer and from patient to patient. […] ATPlite is a luminescence based assay reliant on the conversion of a luciferase substrate to light in the presence of ATP. As a cytotoxic compound will suppress growth and decrease the number of cells, the concentration of ATP will decrease, and less light signal will be detected in the well. […]
Results filed as inconclusive are left out. Calls of active or inactive are those of the source. Calls follow the shape of the dose curve; as a rule, active = well fitted cell-killing curve with a large enough effect; inconclusive = small, poorly fitted or top-dose-only effect, or effect the other way; inactive = flat fitted curve, though single readings scatter.
Outcomes: Yes (active), No (inactive)

- COMPOUND: "COc1ccnc2c1CCCCC2S(=O)c1nc2ccccc2[nH]1 (configuration not stated)"
  ASSIGNED_CLASS: "No"
- COMPOUND: "Cc1ccc(C(=O)c2ccc(CC(=O)O)n2C)cc1"
  ASSIGNED_CLASS: "No"
- COMPOUND: "CCCC(=O)OC[C@@H](OC(=O)CCC)[C@@H](OC(=O)CCC)[C@H](Cn1c2nc(=O)[nH]c(=O)c-2nc2cc(C)c(C)cc21)OC(=O)CCC"
  ASSIGNED_CLASS: "No"
- COMPOUND: "Nc1c(CC(=O)O)cccc1C(=O)c1ccc(Br)cc1"
  ASSIGNED_CLASS: "No"
- COMPOUND: "CO[C@@]1(NC(=O)Cc2cccs2)C(=O)N2C(C(=O)O)=C(COC(N)=O)CS[C@@H]21"
  ASSIGNED_CLASS: "No"
- COMPOUND: "CN1[C@@H]2CC[C@H]1CC(OC(=O)C(CO)c1ccccc1)C2 (some centres not stated)"
  ASSIGNED_CLASS: "No"
- COMPOUND: "NCCO"
  ASSIGNED_CLASS: "No"
- COMPOUND: "COC(=O)c1nc(Cl)c(Cl)nc1N"
  ASSIGNED_CLASS: "Yes"
- COMPOUND: "O=C(O)/C=C\\C(=O)O"
  ASSIGNED_CLASS: "No"
- COMPOUND: "CCCSc1ccc2nc(NC(=O)OC)[nH]c2c1"
  ASSIGNED_CLASS: "Yes"
- COMPOUND: "CCNC(=O)[C@H]1O[C@@H](n2cnc3c(N)nc(NCCc4ccc(CCC(=O)O)cc4)nc32)[C@H](O)[C@@H]1O"
  ASSIGNED_CLASS: "No"
- COMPOUND: "O=C(O)c1cc(O)c(O)c(O)c1"
  ASSIGNED_CLASS: "No"

====

Assay: Cell Viability - LYMP2-001 (AID 921);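 also: cells exposed to compound for 24 h at 37 °C; nearly all actives have a fitted effect of over 70% in size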
Settings: LYMP2-001 lymphoblastoid cell viability; series mostly up to 92.2 µM
Source text: NIH Chemical Genomics Center [NCGC] NIH Molecular Libraries Screening Centers Network [MLSCN] National Institutes of Environmental Health Sciences [NIEHS] National Toxicology Program [NTP] We have developed a 1536-well cell-based assay for quantitative high throughput screening (qHTS) against a number of cell lines to determine in vitro cytotoxicity of small molecules. […] 8. Detection; Luminescence; Viewlux plate reader […]
Inconclusive results are not listed. The source made the active and inactive calls. Calls follow the shape of the dose curve; as a rule, active = well fitted cell-killing curve with a large enough effect; inconclusive = small, poorly fitted or top-dose-only effect; inactive = no such curve, though single readings can be large or run the other way.
Outcomes: YES = active, NO = inactive

- COMPOUND: "CN(C)CCC(c1ccc(Cl)cc1)c1ccccn1 (stereo unspecified)"
  ASSIGNED_CLASS: "NO"
- COMPOUND: "C#C[C@]1(O)CC[C@H]2[C@@H]3CCc4cc(O)ccc4[C@H]3CC[C@@]21C"
  ASSIGNED_CLASS: "NO"
- COMPOUND: "O=C(O)/C=C\\C(=O)O"
  ASSIGNED_CLASS: "NO"
- COMPOUND: "COc1cc(/C=C/C(=O)CC(=O)/C=C/c2ccc(O)c(OC)c2)ccc1O"
  ASSIGNED_CLASS: "YES"
- COMPOUND: "N=C1N=C(N)c2cc3ccccc3cc21"
  ASSIGNED_CLASS: "YES"
- COMPOUND: "CC1(C)S[C@@H]2[C@H](NC(=O)[C@H](N)c3ccccc3)C(=O)N2[C@H]1C(=O)O"
  ASSIGNED_CLASS: "NO"

The measured values listed here are drawn from PubChem BioAssay (NCATS).
